Reference for the values: patent US11596639B2

# Assayed target: Mcl-1 (Homo sapiens (Human), UniProt Q07820)
# Sequence (Q07820 172-327): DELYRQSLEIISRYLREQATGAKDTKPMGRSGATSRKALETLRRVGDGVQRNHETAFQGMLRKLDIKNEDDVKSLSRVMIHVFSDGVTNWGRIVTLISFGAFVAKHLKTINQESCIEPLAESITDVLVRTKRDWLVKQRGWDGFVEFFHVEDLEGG
# Assay notes: Fluorescence polarization anisotropy (FPA) competition assay, FITC-Bak or FITC-Bim BH3 peptide
# Assay type: binding
# Particulars: read-out: Ki for Inhibition of Mcl-1 by FPA assay
Measurement kind: Ki

Use these answered entries as a reference point.
[[record]]
compound = "Cc1cc(OCCCc2c3n(c4c(-c5c(C)nn(C)c5C)c(Cl)ccc24)[C@H](C)CN(c2nn(C)c4c(C(=O)O)cccc24)C3=O)cc(C)c1Cl"
value_reported = "1 nM"

[[record]]
compound = "Cc1cc(OCCCc2c3n(c4c(-c5c(C)nn(C)c5C)c(Cl)ccc24)[C@H](C)CN(c2cccc4nn(C)c(C(=O)O)c24)C3=O)cc(C)c1Cl [Example 132]"
value_reported = "< 1 nM"

[[record]]
compound = "Cc1cc(OCCCc2c3n(c4c(-c5c(C)nn(C)c5C)c(Cl)ccc24)[C@H](C)CN(c2cccc4c(Cl)cc(C(=O)O)nc24)C3=O)cc(C)c1Cl"
value_reported = "< 1 nM"

[[record]]
compound = "Cc1cc(OCCCc2c3n(c4c(-c5c(C)nn(C)c5C)c(Cl)ccc24)[C@H](C)CN(c2ccc4nc(C(=O)O)cn4c2)C3=O)cc(C)c1Cl"
value_reported = "1.1 nM"

[[record]]
compound = "Cc1cc(OCCCc2c3n(c4c(-c5c(C)nn(C)c5C)c(Cl)ccc24)[C@H](C)CN(c2cccc4cc(C(=O)O)n(Cc5ccccn5)c24)C3=O)cc(C)c1Cl [Example 247]"
value_reported = "< 1 nM"

[[record]]
compound = "Cc1cc(OCCCc2c3n(c4c(-c5c(C)nn(C)c5C)c(Cl)ccc24)[C@H](C)CN(c2ccc(F)c4c(C(=O)O)cn(C)c24)C3=O)cc(C)c1Cl"
value_reported = "< 1 nM"

[[record]]
compound = "Cc1cc(OCCCc2c3n(c4c(-c5c(C)nn(C)c5C)c(Cl)ccc24)[C@H](C)CN(c2nn(C)c4ccc(C(=O)O)cc24)C3=O)cc(C)c1Cl"
value_reported = "< 1 nM"

[[record]]
compound = "Cc1cc(OCCCc2c3n(c4c(-c5c(C)nn(C)c5C)c(Cl)ccc24)[C@H](C)CN(c2ccc(OCC4CCN(C)C4)c4c2cc(C(=O)O)n4C)C3=O)cc(C)c1Cl (some centres unmarked)"
value_reported = "3.2 nM"

[[record]]
compound = "Cc1cc(OCCCc2c3n(c4c(-c5c(C)nn(C)c5C)c(Cl)ccc24)CCCN(c2cc(C(=O)O)c4cnn(CCO)c4c2)C3=O)cc(C)c1Cl"
value_reported = "< 1 nM"

[[record]]
compound = "Cc1cc(OCCCc2c3n(c4c(-c5c(C)nn(C)c5C)c(Cl)ccc24)[C@H](C)CN(c2cccc4c2cc(-c2nnco2)n4C)C3=O)cc(C)c1Cl"
value_reported = "3.6 nM"


Prompt: Field request: Ki | item: Cc1cc(OCCCc2c3n(c4c(-c5c(C)nn(C)c5C)c(Cl)ccc24)[C@H](C)CN(c2cccc4c(C(=O)O)cn(C)c24)C3=O)cc(C)c1Cl [Example 215]
Completion: < 1 nM

###

# Test system: H929 human cancer cell lines
# Assay notes: Cellular viability / proliferation (Cell TiterGlo, 72 h)
# Format: cell-based
# Particulars: Homo sapiens, NCI-H929, 72 h, read-out: GI50 on cellular proliferation of H929 human cancer cell lines, H929 cells, 72 h, Cell TiterGlo, 10% FBS
Measurement kind: GI50

Use these answered entries as a reference point.
[[record]]
molecule = "Cc1cc(OCCCc2c3n(c4c(-c5c(C)nn(C)c5C)c(Cl)ccc24)[C@H](C)CN(c2coc4ccccc24)C3=O)cc(C)c1Cl (single isomer, unassigned)"
assayed_target = "H929 human cancer cell lines"
value_reported = "7600 nM"

[[record]]
molecule = "Cc1cc(OCCCc2c3n(c4c(-c5c(C)nn(C)c5C)c(Cl)ccc24)CCCN(c2ccc(C(=O)O)c4ccn(C)c24)C3=O)cc(C)c1Cl"
assayed_target = "H929 human cancer cell lines"
value_reported = "5700 nM"

[[record]]
molecule = "Cc1cc(OCCCc2c3n(c4c(-c5c(C)nc(COCc6ccccc6)nc5C)c(Cl)ccc24)CCCN(c2cn(C)c4ccc(C(=O)O)cc24)C3=O)cc(C)c1Cl"
assayed_target = "H929 human cancer cell lines"
value_reported = "2000 nM"

[[record]]
molecule = "CCn1cc(N2C[C@@H](C)n3c(c(CCCOc4cc(C)c(Cl)c(C)c4)c4ccc(Cl)c(-c5c(C)nn(C)c5C)c43)C2=O)c2cccc(C(=O)O)c21"
assayed_target = "H929 human cancer cell lines"
value_reported = "1100 nM"


Prompt: Field request: GI50 | item: Cc1cc(OCCCc2c3n(c4c(-c5c(C)nn(CCN6CCCC6)c5C)c(Cl)ccc24)[C@H](C)CN(c2cn(C)c4ccc(C(N)=O)cc24)C3=O)cc(C)c1Cl
Completion: 950 nM

Prompt: Query COCCOCCn1c(C(=O)O)cc2cc(C)cc(N3C[C@@H](C)n4c(c(CCCOc5cc(C)c(Cl)c(C)c5)c5ccc(Cl)c(-c6c(C)nn(C)c6C)c54)C3=O)c21 next
Completion: < 200 nM

Prompt: Query Cc1cc(OCCCc2c3n(c4c(-c5c(C)nn(C)c5C)c(Cl)ccc24)[C@H](C)CN(c2cn(C)c4ccc(-c5nnnn5C)cc24)C3=O)cc(C)c1Cl next
Completion: 2300 nM

Prompt: Query Cc1cc(OCCCc2c3n(c4c(-c5c(C)nn(C)c5C)c(Cl)ccc24)[C@H](C)CN(c2cn(C)c4ccc(C(=O)Nc5cccnc5)cc24)C3=O)cc(C)c1Cl next
Completion: 1000 nM

Prompt: Query Cc1cc(N2C[C@@H](C)n3c(c(CCCOc4cc(C)c(Cl)c(C)c4)c4ccc(Cl)c(-c5c(C)nn(C)c5C)c43)C2=O)c2c(c1)cc(C(=O)O)n2Cc1cccc(N2CCN(C)CC2)n1 next
Completion: 330 nM

Prompt: Query Cc1cc(N2C[C@@H](C)n3c(c(CCCOc4cc(C)c(Cl)c(C)c4)c4ccc(Cl)c(-c5c(C)nn(C)c5C)c43)C2=O)c2c(c1)cc(C(=O)O)n2CC1CCOCC1 next
Completion: 610 nM

Prompt: Query CC[C@@H]1Cn2c(c(CCCOc3cc(C)c(Cl)c(C)c3)c3ccc(Cl)c(-c4c(C)nn(C)c4C)c32)C(=O)N1Cc1ccc(C(=O)O)cn1 next
Completion: 6500 nM
